Several reports have described IC50 for Progesterone receptor (Homo sapiens, UniProt P06401); a selection of those results is presented here.
# experimental_system: Progesterone receptor (Homo sapiens, UniProt P06401)
# Sequence (P06401 whole entry): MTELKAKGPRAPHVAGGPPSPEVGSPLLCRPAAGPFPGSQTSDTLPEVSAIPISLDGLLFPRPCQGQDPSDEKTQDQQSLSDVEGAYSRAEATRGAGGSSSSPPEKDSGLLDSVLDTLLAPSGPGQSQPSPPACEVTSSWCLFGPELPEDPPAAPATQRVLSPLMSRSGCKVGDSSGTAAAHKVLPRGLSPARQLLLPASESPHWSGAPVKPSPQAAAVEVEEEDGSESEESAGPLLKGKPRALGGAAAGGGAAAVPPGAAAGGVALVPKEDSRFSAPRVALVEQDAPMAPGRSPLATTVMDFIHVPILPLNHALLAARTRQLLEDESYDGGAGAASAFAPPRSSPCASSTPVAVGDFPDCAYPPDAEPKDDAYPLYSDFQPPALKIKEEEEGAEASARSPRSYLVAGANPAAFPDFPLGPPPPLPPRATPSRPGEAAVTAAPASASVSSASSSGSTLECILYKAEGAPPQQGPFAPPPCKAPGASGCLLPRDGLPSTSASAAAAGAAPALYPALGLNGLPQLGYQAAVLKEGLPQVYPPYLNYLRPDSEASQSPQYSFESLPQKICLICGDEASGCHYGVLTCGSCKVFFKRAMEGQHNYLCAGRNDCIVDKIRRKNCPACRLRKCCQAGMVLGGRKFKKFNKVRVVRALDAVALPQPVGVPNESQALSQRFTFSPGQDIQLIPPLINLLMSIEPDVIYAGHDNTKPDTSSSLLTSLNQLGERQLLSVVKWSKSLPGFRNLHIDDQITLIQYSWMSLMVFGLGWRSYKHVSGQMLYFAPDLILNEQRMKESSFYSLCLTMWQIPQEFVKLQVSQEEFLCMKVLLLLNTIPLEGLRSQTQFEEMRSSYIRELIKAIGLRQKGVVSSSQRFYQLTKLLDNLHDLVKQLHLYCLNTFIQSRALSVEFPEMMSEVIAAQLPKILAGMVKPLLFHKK
observed_property: IC50

>  <compound>
Nc1cc(Cl)cc(Cl)c1S(=O)(=O)NC(Cc1c[nH]c2ccccc12)C(F)(F)F (stereo unspecified)

>  <result>
> 2000 nM

$$$$
>  <compound>
Cc1cc(C)c(S(=O)(=O)NC(Cn2ccc3ncccc32)C(F)(F)F)c(C)c1 (stereo unspecified)

>  <result>
> 10000 nM

$$$$
>  <compound>
Fc1ccc(-n2ncc3cc(-c4ccccc4)ccc32)cc1

>  <result>
> 10000 nM

$$$$
>  <compound>
C=CCSCC1=CC(C)(C)Nc2ccc(-c3ccccc3OCC)cc21

>  <result>
> 2000 nM

$$$$
>  <compound>
Cc1cccc(-c2ccc3c(cnn3-c3ccc(F)cc3)c2)c1

>  <result>
> 10000 nM

$$$$
>  <compound>
CC(Cc1c[nH]c2ccccc12)NS(=O)(=O)c1c(N)cc(Cl)cc1Cl (stereo unspecified)

>  <result>
> 2000 nM

$$$$
>  <compound>
C[C@@H]1C[C@H]2[C@@H]3CCC4=CC(=O)C=C[C@]4(C)[C@@]3(F)[C@@H](O)C[C@]2(C)[C@@]1(O)C(=O)CO

>  <result>
> 2000 nM

$$$$
>  <compound>
C=CCSCC1=CC(C)(C)Nc2ccc(-c3cccc(OC)c3OC)cc21

>  <result>
> 2000 nM

$$$$
>  <compound>
Cc1cc(C)c(S(=O)(=O)N[C@H](C)Cc2c[nH]c3ccccc23)c(C)c1

>  <result>
> 2000 nM

$$$$
>  <compound>
C=CCSCC1=CC(C)(C)Nc2ccc(-c3cccc(OCC)c3)cc21

>  <result>
> 2000 nM

$$$$
>  <compound>
CC(C)(CC(O)(Cc1cc2ccncc2[nH]1)C(F)(F)F)c1cccc2c1OCC2 (stereo unspecified)

>  <result>
130 nM

$$$$
>  <compound>
C[C@H](c1ccc(F)cc1)N1C(=O)O[C@](Cc2ccc(F)cc2)(C(=O)NCc2ccc(Cl)c(Cl)c2)C1=O

>  <result>
3600 nM

$$$$
>  <compound>
O=S(=O)(Nc1ccc(-c2ccc3c(cnn3-c3ccc(F)cc3)c2)c(C(F)(F)F)c1)c1ccccc1

>  <result>
> 10000 nM

$$$$
>  <compound>
COc1ccc(F)cc1C(C)(C)CC(O)(Cn1ccc2ncccc21)C(F)(F)F (stereo unspecified)

>  <result>
200 nM

$$$$
>  <compound>
COc1ccc(F)cc1C(C)(C)CC(O)(Cc1cc2ccccc2[nH]1)C(F)(F)F (stereo unspecified)

>  <result>
250 nM

$$$$
>  <compound>
O=C1COc2ccc(C3=Nn4cnnc4SC3c3cccc(F)c3)cc2N1 (stereo unspecified)

>  <result>
> 10000 nM

$$$$
>  <compound>
CCC(Cc1ccc(O)c2ccccc12)NS(=O)(=O)c1c(C)cc(C)cc1C (stereo unspecified)

>  <result>
210 nM

$$$$
>  <compound>
CCC(C)(C)C(O)(Cc1cc2ccncc2[nH]1)CC(C)(C)c1cc(F)ccc1OC (stereo unspecified)

>  <result>
> 2000 nM

$$$$
>  <compound>
CC(C)(CC(O)(Cc1cc2ccncc2[nH]1)C(F)(F)F)c1cc(-c2cncnc2)ccc1O (stereo unspecified)

>  <result>
> 2000 nM

$$$$
>  <compound>
CNCCOc1ccc(N2Nc3cc(O)ccc3-c3c2c2ccc(O)cc2oc3=O)cc1

>  <result>
> 100 nM

$$$$
>  <compound>
C[C@]12Cc3cnn(-c4ccc(F)cc4)c3C=C1CCC[C@@H]2[C@@H](O)c1ccc(F)cc1

>  <result>
> 1000 nM

$$$$
>  <compound>
COc1ccc(F)cc1C(C)(C)CC(O)(Cc1cc2cnccc2[nH]1)C(F)(F)F (stereo unspecified)

>  <result>
> 2000 nM

$$$$
>  <compound>
Cc1cc(C)c(S(=O)(=O)NC(Cc2c[nH]c3c(C#N)cc(C)cc23)C(F)(F)F)c(C)c1 (stereo unspecified)

>  <result>
750 nM

$$$$
>  <compound>
COc1cccc2c1-c1ccc(NS(C)(=O)=O)cc1C(c1cccc(F)c1)O2 (stereo unspecified)

>  <result>
476 nM

$$$$
>  <compound>
COc1ccc(-c2cncnc2)cc1C(C)(C)CC(O)(Cc1cc2ccncc2[nH]1)C(F)(F)F (stereo unspecified)

>  <result>
> 2000 nM

$$$$
>  <compound>
O=S(=O)(NCCO)c1ccc(-c2ccc3c(cnn3-c3ccc(F)cc3)c2)c(C(F)(F)F)c1

>  <result>
5010 nM

$$$$
>  <compound>
Cc1noc(=O)c2ccc(NC(=O)C(O)(Cc3ccccc3)CC(C)(C)c3cc(F)ccc3O)cc12 (stereo unspecified)

>  <result>
32 nM

$$$$
>  <compound>
COc1ccc(F)cc1C(C)(C)CC(O)(C(=O)Nc1ccc2c(c1)COC2=O)C(F)(F)F (stereo unspecified)

>  <result>
85 nM

$$$$
>  <compound>
Fc1ccc(-c2c3cccc(C(F)(F)F)c3nn2Cc2ccccc2F)cc1

>  <result>
> 10000 nM

$$$$
>  <compound>
Cc1ccccc1-c1ccc2c(cnn2-c2ccc(F)cc2)c1

>  <result>
6310 nM

$$$$
>  <compound>
Cc1c(NS(C)(=O)=O)cccc1N(Cc1ccc(Oc2ccc(Br)c(OCC(=O)O)c2)cc1)Cc1ccc(F)cc1F

>  <result>
140 nM

$$$$
